experiment: Induction of hemolysis in Sprague-Dawley rat erythrocytes incubated at 37 degC for 60 mins by spectrophotometry; assay type: cell-based, Erythrocyte; conditions: Sprague-Dawley, erythrocytes, read-out: HD50
recorded_endpoint: HC50 at 1 h

C[C@H](c1ccccc1)N(CC(N)=O)C(=O)CN(C(=O)CN(CCCCN)C(=O)CN(C(=O)CN(C(=O)CN(CCCCN)C(=O)CN(C(=O)CN(C(=O)CNCCCCN)[C@H](C)c1ccccc1)[C@@H](C)c1ccccc1)[C@H](C)c1ccccc1)[C@@H](C)c1ccccc1)[C@H](C)c1ccccc1 (stereo in doubt)	> 200 µM
C[C@@H](c1ccc(Cl)cc1)N(CC(N)=O)C(=O)CN(C(=O)CN(CCCCN)C(=O)CN(C(=O)CN(C(=O)CN(CCCCN)C(=O)CN(C(=O)CN(C(=O)CN(CCCCN)C(=O)CN(C(=O)CN(C(=O)CNCCCCN)[C@@H](C)c1ccc(Cl)cc1)[C@@H](C)c1ccc(Cl)cc1)[C@@H](C)c1ccc(Cl)cc1)[C@@H](C)c1ccc(Cl)cc1)[C@@H](C)c1ccc(Cl)cc1)[C@@H](C)c1ccc(Cl)cc1)[C@@H](C)c1ccc(Cl)cc1	10.4 µM

Next, consider the following compound.
Query: For the compound C[C@@H](c1ccc(F)cc1)N(CC(N)=O)C(=O)CN(C(=O)CN(CCCCN)C(=O)CN(C(=O)CN(C(=O)CN(CCCCN)C(=O)CN(C(=O)CN(C(=O)CN(CCCCN)C(=O)CN(C(=O)CN(C(=O)CNCCCCN)[C@@H](C)c1ccc(F)cc1)[C@@H](C)c1ccc(F)cc1)[C@@H](C)c1ccc(F)cc1)[C@@H](C)c1ccc(F)cc1)[C@@H](C)c1ccc(F)cc1)[C@@H](C)c1ccc(F)cc1)[C@@H](C)c1ccc(F)cc1 , what HC50 at 1 h is on record?
Result: < 6.25 µM
